meta.source: patent US20080234262A1

- Tested on: breast line MDA468
- assay.info: In vitro cell culture growth assay (MTS), MDA468
- Type: cell-based, human
- run.conditions: Homo sapiens, 72 h, MDA468 cells, three days after drug treatment
Form field: IC50 (one value per entry).
In your response, put the unit directly after the numeric value.

[[record]]
compound = "O=C(Nc1ccc(-c2nc(N3CCOCC3)c3cnn(C4CCN(Cc5cccnc5)CC4)c3n2)cc1)NC1CC1"
quantity_measured = "IC50"
obs_value = "100 nM"

[[record]]
compound = "O=C(Nc1ccncc1)Nc1ccc(-c2nc(N3CCOCC3)c3cnn(C4CCN(Cc5cccnc5)CC4)c3n2)cc1F [Compound 599]"
quantity_measured = "IC50"
obs_value = "82 nM"

[[record]]
compound = "O=C(Nc1cc(F)c(-c2nc(N3CCOCC3)c3cnn(C4CCN(C(=O)c5cccnc5)CC4)c3n2)cc1F)NC1CC1"
quantity_measured = "IC50"
obs_value = "2200 nM"


// next item, IC50 requested
Prompt line: Return reported IC50; argument: NCCNC(=O)Nc1ccc(-c2nc(N3CCOCC3)c3cnn(C4CCN(Cc5ccccc5)CC4)c3n2)cc1 [Example 267]
Response line: 2700 nM
